Test system: P388
PROCEDURE_SUMMARY: Cytotoxicity against mouse P388 cells after 72 hrs by sulforhodamine B assay
Assay type: functional
CONDITION_NOTES: P388, 72 h, read-out: ED50 (the source's name)
MEASURE_NAME: log10 of EC50 (log10 of the value in µg/mL)
The base-10 logarithm of EC50, taken with EC50 in µg/mL, is what appears here.

These solved cases illustrate the format of a correct answer.
COc1cc2c(O[C@@H]3OC[C@H](O)[C@H](O)[C@H]3O)c3c(c(-c4ccc5c(c4)OCO5)c2cc1OC)C(=O)OC3 [ACUTISSIMALIGNAN A]	-1.70
CO[C@@]1(C)CO[C@@]2(C=C([C@@H]3CC[C@]45C[C@]34CC[C@@H]3[C@@]4(C)CC=C6C[C@@H](c7ccc8c(c7)OCO8)OC[C@]6(C)[C@@H]4C[C@@H](O)[C@]35C)C(=O)O2)C1	-0.30
Cc1c2ccncc2c(C)c2c1[nH]c1ccccc12 [ELLIPTECINE]	-0.70
CO[C@@]1(C)CO[C@@]2(C1)OC(=O)[C@H]([C@@H]1CC[C@]34C[C@]13CC[C@@H]1[C@@]3(C)CC=C5C[C@@H](c6ccc7c(c6)OCO7)OC[C@]5(C)[C@@H]3C[C@@H](O)[C@]14C)[C@H]2O	-2.30

Next compound, please.
stdin: Query log10 of EC50 for CO[C@@]1(C)CO[C@@]2(C=C([C@@H]3CC[C@]45C[C@]34CC[C@@H]3[C@@]4(C)CC=C6C[C@@H](c7ccccc7)OC[C@]6(C)[C@@H]4C[C@@H](O)[C@]35C)C(=O)O2)C1
stdout: -0.40
